Test: Immunotoxin (SS1P) sensitization/mitigation study. Vehicle arm (DMEM) (AID 1159513)
Conditions: cell viability with vehicle (DMEM); series mostly up to 46.1 µM
The source made the active and inactive calls. How the calls were made is not given here.
Please state which outcome applies, choosing from active, inactive

CCOc1cc(N2CCC(O)CC2)ccc1Nc1ncc2c(n1)N(C)c1ccccc1C(=O)N2C	active
O=C(O)c1ccc2c(c1)nc(Nc1cccc(Cl)c1)c1ccncc12	active
C=CCON=C(C[C@H]1O[C@@H]2O[C@]3(C)CC[C@@H]4[C@H](C)CC[C@@H]([C@H]1C)[C@@]24OO3)[C@H]1O[C@@H]2O[C@]3(C)CC[C@H]4[C@H](C)CC[C@@H]([C@@H]1C)[C@@]24OO3	active

For CNC(=O)c1cc(Oc2ccc(NC(=O)Nc3ccc(Cl)c(C(F)(F)F)c3)c(F)c2)ccn1 , what call appears in the results of this test? active

Now the same for O=c1[nH]c(-c2ccc(C(F)(F)F)cc2)nc2c1CSCC2 inactive

Now the same for Cn1c(Nc2ccc(C(F)(F)F)cc2)nc2cc(Oc3ccnc(-c4ncc(C(F)(F)F)[nH]4)c3)ccc21 active

Now the same for CC#C[C@]1(O)CC[C@H]2[C@@H]3CCC4=CC(=O)CCC4=C3[C@H](c3ccc(N(C)C)cc3)C[C@@]21C active

Now the same for CC(C)[C@H](C(=O)Nc1ccc(C(=O)NO)cc1)c1ccccc1 active

###

Test system: MKL-1
Test: qHTS assay to identify novel small-molecules to repurpose for Merkel cell carcinoma treatment (AID 1296009); further: nearly all actives have a fitted effect of over 60% in size
Settings: MCC and control cell lines, CellTiter-Glo viability, 72 h; series mostly up to 46 µM
Records with an inconclusive call do not appear. Calls of active or inactive are those of the source. Calls come from the whole dose curve; as a rule, active = well fitted inhibition curve with a large enough effect; inconclusive = small, poorly fitted or top-dose-only effect; inactive = flat fitted curve, though single readings scatter.
Please state which outcome applies, choosing from true (1) = active, false (0) = inactive

Example cases with answers are listed next.
C[C@@H]1CC[C@H]2[C@@H](C)C(=O)O[C@@H]3O[C@@]4(C)CC[C@H]1[C@]32OO4	false (0)
O=C1C=CC[C@@H]2[C@H]3CCCN4CCC[C@@H](CN12)[C@@H]34	false (0)
CC1=NN=C(c2ccc(N)cc2)c2cc3c(cc2C1)OCO3	false (0)

For O=[N+]([O-])c1ccc([As](=O)(O)O)cc1 , what call appears in the results of this test? false (0)

Now the same for CC(C)[C@]12O[C@@H]1[C@@H]1O[C@]13[C@]1(O[C@H]1C[C@@H]1C4=C(CC[C@@]13C)C(=O)OC4)[C@H]2O false (0)

Now the same for COC1=C[C@@H]2[C@@H]3Cc4ccc(OC)c(O)c4[C@]2(CCN3C)CC1=O false (0)

Now the same for CCCCC(CC)COC(=O)c1ccccc1C(=O)OCC(CC)CCCC (stereo not given) false (0)

Now the same for CCCCCCCCCC(CC)c1ccc(S(=O)(=O)O)cc1 (stereo not given) false (0)

Now the same for CC(C)Oc1cccc(NC(=O)c2ccccc2C(F)(F)F)c1 false (0)

Now the same for COc1ccc(N(C(=O)Oc2c(C)cccc2C)c2ccnc(Nc3ccc(N4CCN(C)CC4)cc3)n2)c(OC)c1 true (1)

Now the same for Cc1c(C(=O)Nc2cccc(C(F)(F)F)c2)cc(-c2ccccc2)n1CCCN1CCOCC1 false (0)

Now the same for CC[C@@]1(O)C(=O)OCc2c1cc1n(c2=O)Cc2cc3ccccc3nc2-1 true (1)

###

Experiment: Primary qHTS to identify inhibitors of SARS-CoV-2 cell entry (AID 1645846); further: nearly all actives have a fitted effect of over 45% in size
Settings: SARS-CoV-2 pseudovirus cell entry assay, luminescence; at 57.1 µM (top of the series) unless noted
Inconclusive results are not listed.
experimentalReadout: activity change, negative = inhibition (%)
Expressed in %, but write only the number.

The cases that follow already have their activity change, negative = inhibition on record.
CCCCOCCOc1nc(-c2ccc(C(=O)O)c(F)c2)sc1C	-25.8
COc1ccc(CC2SC(=O)NC2=O)cc1C(=O)NCc1ccc(C(F)(F)F)cc1 (stereo not drawn)	-1.76
N#Cc1c(O)c2c(-c3ccc(-c4ccccc4O)cc3)csc2[nH]c1=O	3.57

activity change, negative = inhibition lookup needed for CN[C@@H]1Cc2cccc3[nH]c(=O)n(c23)C1 , thanks. 4.06

Now the same for CC[C@@H](C(N)=O)N1CCCC1=O -1.29

Now the same for O=c1cccc2n1CC1CNC[C@H]2C1 -15.2

###

Assay: qHTS for Inhibitors of the Functional Ribonucleoprotein Complex (vRNP) of Lassa (LASV) Arenavirus: Viability assay - alamar blue signal for LASV Primary Screen (AID 1347083); further: nearly all actives have a fitted effect of over 80% in size
Conditions: cell viability, alamar blue fluorescence (LASV minigenome counter-screen); series mostly up to 57.5 µM
Records with an inconclusive call do not appear. Active and inactive are the calls of the source. Calls come from the whole dose curve; tested in HEK293 reporter line.
Please state which outcome applies, choosing from active, inactive

Example cases with answers are listed next.
CN1C2CCC1CC(OC(=O)c1cc(Cl)cc(Cl)c1)C2 (stereo not given)	inactive
Cc1cc(Nc2nc(N[C@@H](C)c3ncc(F)cn3)ncc2Cl)n[nH]1	inactive
Cn1c2cc(S(C)=O)sc2c2cnn(Cc3cccc(N)c3)c(=O)c21 (stereo not given)	inactive
N=c1c2c(-c3ccccc3)c(-c3ccccc3)n(Cc3ccccc3)c2ncn1C1CCC(O)CC1 (stereo not given)	active

Now for a further compound.
For Cc1ccc(S(=O)(=O)Nc2cc(Cl)ccc2C(=O)Nc2nc(-c3ccccc3)cs2)cc1 , what call appears in the results of this test? inactive

###

Tested on: HACAT
Assay: qHTS assay to identify novel small-molecules to repurpose for Merkel cell carcinoma treatment (AID 1296009); further: nearly all actives have a fitted effect of over 60% in size
Settings: MCC and control cell lines, CellTiter-Glo viability, 72 h; at 44.8 µM (top of the series) unless noted
Records with an inconclusive call do not appear. Active and inactive are the calls of the source. Calls follow the shape of the dose curve; as a rule, active = well fitted inhibition curve with a large enough effect; inconclusive = small, poorly fitted or top-dose-only effect; inactive = flat fitted curve, though single readings scatter.
experimentalReadout: outcome

The cases that follow already have their outcome on record.
C[C@](O)(COc1ccc(C#N)cc1)C(=O)Nc1ccc(C#N)c(C(F)(F)F)c1	inactive
COC1=C[C@@H]2[C@@H]3Cc4ccc(OC)c(O)c4[C@]2(CCN3C)CC1=O	inactive
C=CCC1=C(C)C(OC(=O)C2C(C=C(C)C)C2(C)C)CC1=O (stereo not drawn)	inactive [at 92 µM]
C[C@@H]1[C@H](O)[C@@H](C)C=CC=CCCC=CC=CC=CC=C[C@H](O[C@H]2O[C@@H](C)[C@H](O)[C@@H](N)[C@@H]2O)CC2O[C@](O)(C[C@@H](O)[C@H](O)CC[C@@H](O)C[C@@H](O)C[C@@H](O)CC(=O)O[C@H]1C)C[C@H](O)[C@H]2C(=O)O	inactive
C[C@]12COC(=O)C[C@@H]1CC[C@@H]1[C@H]2CC[C@@]2(C)[C@H]1CC[C@]2(C)O	inactive
c1cc2c(cc1[C@H]1OC[C@H]3[C@H]1CO[C@H]3c1ccc3c(c1)OCO3)OCO2	inactive
CCCCCCCCCC(CC)c1ccc(S(=O)(=O)O)cc1 (stereo not drawn)	inactive [at 92 µM]

Could you now look at the following compound, please?
Under HACAT: outcome value of CSCC[C@@H](NC(=O)[C@@H](Cc1ccccc1)NC(=O)CNC(=O)CNC(=O)[C@@H](N)Cc1ccc(O)cc1)C(=O)O ? inactive

###

Assay: Quantitative High-Throughput drug screen in 47 multiple myeloma cell lines against the NCATS MIPE library collection: MM1R_ATCC cell viability assay (AID 1918981); further: nearly all actives have a fitted effect of over 35% in size; further: potency means the concentration at half of the fitted maximal effect
Conditions: MM1R multiple myeloma cells, CellTiter-Glo viability, 48 h; series mostly up to 45.8 µM
Records with an inconclusive call do not appear. Active and inactive are the calls of the source. The call rests on the fitted dose curve; in most records, active means well fitted cell-killing curve with a large enough effect; inconclusive means small, poorly fitted or top-dose-only effect, or effect the other way; inactive means no such curve, though single readings can be large or run the other way.
experimentalReadout: Potency

The cases that follow already have their Potency on record.
CC(=CCCC1=CCC(C2=CC(=O)OC2O)OC1O)CCC1=C(C)CCCC1(C)C (stereo unspecified)	inactive
CC(C)(C)[C@]1(O)C[C@@H]2OC(=O)C[C@@]23C(=O)O[C@@H]2OC(=O)[C@H](O)C213 (stereo partly specified)	inactive
C[C@@H]1CC[C@@]2(OC1)O[C@H]1C[C@H]3[C@@H]4CC=C5C[C@@H](O[C@@H]6O[C@H](CO)[C@@H](O[C@@H]7O[C@@H](C)[C@H](O)[C@@H](O)[C@@H]7O)[C@H](O)[C@@H]6O[C@@H]6O[C@@H](C)[C@H](O)[C@@H](O)[C@@H]6O)CC[C@]5(C)[C@@H]4CC[C@]3(C)[C@@H]1[C@H]2C	2.09 µM (active)
CC(O)=C(C#N)C(=O)Nc1cc(Br)ccc1Br	20.9 µM (active)
C[C@@H]1O[C@@H](O[C@@H]2C=C3CC[C@@H]4[C@@H](CC[C@]5(C)[C@H](c6ccc(=O)oc6)CC[C@@]45O)[C@@]3(C)CC2)[C@H](O)[C@H](O)[C@H]1O	0.0264 µM (active)
CCOC(=O)c1cncn1[C@H](C)c1ccccc1	inactive
CCNC(=O)C[C@@H]1N=C(c2ccc(Cl)cc2)c2cc(OC)ccc2-n2c(C)nnc21	0.59 µM (active)
CC[C@@H]1[C@@H](C)O[C@@](O)([C@@H](C)[C@H](O)[C@H](C)[C@H]2OC(=O)C=CC=C[C@@H](C)[C@@H]([C@@H](C)[C@@H](O)[C@H](C)[C@@]3(O)C[C@H](O[C@H]4C[C@H](O)[C@H](O)[C@H](C)O4)[C@H](CC)[C@@H](C)O3)OC(=O)C=CC=C[C@@H]2C)C[C@H]1O[C@H]1C[C@H](O)[C@H](O)[C@H](C)O1	0.526 µM (active)
CCc1c(C(=O)C(N)=O)c2c(OCC(=O)O)cccc2n1Cc1ccccc1	inactive
CN1[C@H]2CC(O)C[C@H]1[C@H]1O[C@H]12 (stereo partly specified)	16.6 µM (active)

Potency lookup needed for NC1=NC(=O)N2CC12 (stereo unspecified) , thanks. inactive

Now the same for O=C(Oc1ccc([N+](=O)[O-])cc1)N1CCC(C(O)(c2ccc3c(c2)OCO3)c2ccc3c(c2)OCO3)CC1 inactive

Now the same for CC(=O)O[C@@]12CO[C@H]1C[C@H](O)[C@@]1(C)C(=O)[C@H](O)C3=C(C)[C@@H](O)C[C@@](O)([C@@H](OC(=O)c4ccccc4)[C@@H]21)C3(C)C 7.43 µM (active)

Now the same for O=C(O)CNC(=O)c1c(O)c2ccccc2n(Cc2ccccc2)c1=O inactive

Now the same for CCNC(=O)CC1N=C(c2ccc(Cl)cc2)c2cc(OC)ccc2-n2c(C)nnc21 (stereo unspecified) 14.8 µM (active)

Now the same for N#C[C@H](O[C@@H]1O[C@H](CO[C@@H]2O[C@H](CO)[C@H](O)[C@H](O)[C@H]2O)[C@H](O)[C@H](O)[C@H]1O)c1ccccc1 29.6 µM (active)

Data origin: PubChem BioAssay (NCATS)
